- test_name: chemical genetic growth profiling, strain panel (AID 1159580);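 further: tested at 20 µM; growth read once vehicle control cultures reached saturation at 30 °C; 1 = growth at the plate median or of vehicle wells; lower values mean less growth of the strain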
- conditions_used: S. cerevisiae deletion strains, growth OD, locus YHR079C, strain IRE1, stronger effect = lower value
In all, about 5,500 compounds went through this assay and about 2,000 (36%) were called active. Roughly 18% stayed inconclusive and do not appear here. This is one part of the list.
endpoint: normalized growth

INSERT INTO measurements (compound, endpoint, recorded_value) VALUES
  ('C=C(C)[C@@H]1CC[C@]2(CO)CC[C@]3(C)[C@H](CCC4[C@@]5(C)CC[C@H](O)C(C)(C)C5CC[C@]43C)C12 (stereo not given in full)', 'normalized growth', 0.998),
  ('COc1ccc2c(c1)[C@]13CCCC[C@H]1[C@H](C2)N(C)CC3', 'normalized growth', 1.03),
  ('CN(C)C(=N)N=C(N)N', 'normalized growth', 0.977),
  ('C[C@]12CCC(=O)C=C1CCC1C2C(=O)C[C@@]2(C)C1CC[C@]2(O)C(=O)CO (stereo not given in full)', 'normalized growth', 0.985),
  ('CC[C@H]1OC(=O)[C@H](C)[C@@H](O[C@H]2C[C@@](C)(OC)[C@@H](O)[C@H](C)O2)[C@H](C)[C@@H](O[C@@H]2O[C@H](C)C[C@H](N(C)C)[C@H]2O)[C@](C)(O)C[C@@H](C)[C@@H]2N[C@@H](COCCOC)O[C@H]([C@H]2C)[C@]1(C)O', 'normalized growth', 1.03);

* * *

- test_name: chemical genetic growth profiling, strain panel (AID 1159580);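 further: tested at 20 µM; growth read once vehicle control cultures reached saturation at 30 °C; 1 = growth at the plate median or of vehicle wells; lower values mean less growth of the strain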
- conditions_used: S. cerevisiae deletion strains, growth OD, locus YNL067W, strain RPL9B, stronger effect = lower value
Hit rate of the full screen: of about 5,500 compounds, about 2,000 (36%) were called active. Not shown: some 18% with an inconclusive outcome. This is one part of the list.
endpoint: normalized growth

INSERT INTO assay_data (molecule, recorded_value) VALUES
  ('CN1CCN(CC(=O)N2c3ccccc3C(=O)Nc3cccnc32)CC1', 1.01),
  ('CC(=O)OCC(=O)[C@@]12OC3(CCCC3)O[C@@H]1CC1C3CCC4=CC(=O)C=C[C@]4(C)[C@@]3(F)[C@@H](O)C[C@@]12C (some centres not stated)', 1),
  ('CC1(C)C(=O)[C@@H]2C[C@@]3(O)C4=CC(=O)O[C@@H](c5ccoc5)[C@]4(C)CCC3[C@@](C)(C2=O)[C@H]1CC(=O)O (some centres not stated)', 1),
  ('CCOc1ccc(C(=O)c2cc(O)c(OC)c(OC)c2O)cc1', 1),
  ('CN[C@@H]1[C@@H](O[C@H]2O[C@H](CO)[C@@H](N)[C@H](O)[C@H]2O)O[C@H]2C[C@@H](N)[C@H](O[C@H]3[C@H](O)[C@@H](O)[C@H](N)C[C@@H]3N)O[C@@H]2[C@@H]1O', 0.988),
  ('CCCCc1nc(Cl)c(CO)n1Cc1ccc(-c2ccccc2-c2nn[nH]n2)cc1', 1.02),
  ('NC[C@H]1O[C@H](O[C@H]2C(O[C@@H]3O[C@H](CO)[C@@H](O)[C@H]3O)[C@@H](O)[C@H](N)C[C@@H]2N)[C@H](N)[C@@H](O)[C@@H]1O (some centres not stated)', 0.984);

* * *

- test_name: chemical genetic growth profiling, strain panel (AID 1159580);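 further: tested at 20 µM; growth read once vehicle control cultures reached saturation at 30 °C; 1 = growth at the plate median or of vehicle wells; lower values mean less growth of the strain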
- conditions_used: S. cerevisiae deletion strains, growth OD, locus YMR058W, strain fet3, stronger effect = lower value
Screen size: about 5,500 compounds; about 2,000 (36%) were called active. Roughly 18% stayed inconclusive and do not appear here. The list shows a part of the results.
Listed below: normalized growth values for each entry.
endpoint: normalized growth

INSERT INTO results (molecule, endpoint, recorded_value) VALUES
  ('CC(=O)Oc1cccc2c1C(=O)c1c(OC(C)=O)cc(C(=O)O)cc1C2=O', 'normalized growth', '0.806 (active)'),
  ('c1ccc([C@H]2CN3CCSC3=N2)cc1', 'normalized growth', '1 (inactive)'),
  ('CO[C@H]1C[C@H](O[C@H]2[C@H](C)[C@@H](OC3O[C@H](C)C[C@H](N(C)C)[C@H]3OC(C)=O)[C@@H](C)C[C@]3(CO3)C(=O)[C@H](C)[C@@H](OC(C)=O)[C@@H](C)[C@@H](C)OC(=O)[C@@H]2C)O[C@@H](C)[C@@H]1OC(C)=O (stereo partly drawn)', 'normalized growth', '1 (inactive)'),
  ('C[C@]12CCC(=O)C=C1CCC1C2C(=O)C[C@@]2(C)C1CC[C@]2(O)C(=O)CO (stereo partly drawn)', 'normalized growth', '0.998 (inactive)'),
  ('O=c1c(O)c(-c2ccc(O)c(O)c2)oc2cc(O)ccc12', 'normalized growth', '0.944 (inactive)'),
  ('CC(=O)OCC(=O)[C@@]1(O)CCC2C3CCC4=CC(=O)CC[C@]4(C)C3[C@@H](O)C[C@@]21C (stereo partly drawn)', 'normalized growth', '1.03 (inactive)'),
  ('CN(C)CCc1c[nH]c2ccc(C[C@H]3COC(=O)N3)cc12', 'normalized growth', '1.01 (inactive)'),
  ('CNCC[C@@H](Oc1ccccc1)c1ccccc1', 'normalized growth', '0.981 (inactive)');
